assay_system: T1, pig serum albumin (pig, UniProt P08835 25-607)
T1 construct: Bought protein, immobilized on a CM5 chip by amine coupling; also called Pig SA
assay_explanation: SPR (Biacore 8K), albumin immobilized on CM5 chip, 25 C, 1:1 kinetic fit
assay_metric: Kd
Express your answer as a number followed by its unit.

Here are 2 binders together with their reported answers.
RLN Analog 5 (other, Single-chain fusion: RLN2 B chain (desB1) - L2 - RLN2 A chain - (G4Q)5 L1 - VHH (C-terminal)) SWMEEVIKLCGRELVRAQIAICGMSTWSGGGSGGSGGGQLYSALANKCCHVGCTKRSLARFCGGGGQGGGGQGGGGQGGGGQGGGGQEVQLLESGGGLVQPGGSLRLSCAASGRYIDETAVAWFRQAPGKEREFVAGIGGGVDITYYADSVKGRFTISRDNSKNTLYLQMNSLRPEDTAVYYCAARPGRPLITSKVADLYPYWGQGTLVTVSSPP
23 nM
RLN Analog 12 (other, Single-chain fusion: VHH - (G4Q)5 L1 - RLN2 B chain (desB1) - L2 of thirteen residues - RLN2 A chain (desA1-4)) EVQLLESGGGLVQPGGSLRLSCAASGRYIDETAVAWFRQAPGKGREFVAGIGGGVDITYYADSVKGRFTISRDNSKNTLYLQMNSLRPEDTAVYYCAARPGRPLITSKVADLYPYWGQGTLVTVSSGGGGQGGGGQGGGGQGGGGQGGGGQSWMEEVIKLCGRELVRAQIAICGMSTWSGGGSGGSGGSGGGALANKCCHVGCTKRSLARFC
4.2 nM

Next item in the queue.
binder RLN Analog 9 (other, Single-chain fusion: RLN2 B chain (desB1) - L2 - RLN2 A chain - (G4Q)5 L1 - VHH (C-terminal)) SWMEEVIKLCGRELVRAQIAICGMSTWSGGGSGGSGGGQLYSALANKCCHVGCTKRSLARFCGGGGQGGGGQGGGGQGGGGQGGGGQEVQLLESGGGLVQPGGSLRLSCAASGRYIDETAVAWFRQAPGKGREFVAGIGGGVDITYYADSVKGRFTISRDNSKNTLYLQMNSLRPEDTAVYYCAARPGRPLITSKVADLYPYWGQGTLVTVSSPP , Kd observed: 14 nM
